The values you see were collected from patent US9458113B2.

- testedTarget: Human neutrophil elastase (Homo sapiens (Human))
- Sequence (P08246 30-247): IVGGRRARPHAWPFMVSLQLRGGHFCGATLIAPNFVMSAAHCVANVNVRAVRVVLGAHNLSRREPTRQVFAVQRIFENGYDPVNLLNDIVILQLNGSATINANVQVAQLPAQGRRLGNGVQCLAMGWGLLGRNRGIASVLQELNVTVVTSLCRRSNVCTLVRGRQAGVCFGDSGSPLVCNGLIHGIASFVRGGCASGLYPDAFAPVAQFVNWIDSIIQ
- protocol: Human Neutrophil Elastase Assay
- details: substrate MeOSuc-Ala-Ala-Pro-Val-AMC 250 μM, pH 7.5
measuredProperty: pIC50
FYI, pIC50 means -log10 of a concentration in mol per litre.

These recorded examples may help you get a feel for the data.
compound | pIC50
CN(Cc1ccncc1)C(=O)c1cc(C#N)ccc1C1C2=C(CCC2=O)N(c2cccc(C(F)(F)F)c2)C(=O)N1C (stereo not shown) | 8.77
CN1C(=O)N(c2cccc(C(F)(F)F)c2)C2=C(C(=O)CC2)C1c1ccc(C#N)cc1C(=O)NCc1cnco1 (stereo not shown) | 9.00
CN1C(=O)N(c2cccc(C(F)(F)F)c2)C2=C(C(=O)CCC2)C1c1ccc(C#N)cc1-c1cnn(C)c1 (stereo not shown) | 8.62

Prompt: Form field: reported pIC50 of CN[C@H]1CCN(C(=O)c2cc(C#N)ccc2C2C3=C(CCC3=O)N(c3cccc(C(F)(F)F)c3)C(=O)N2C)C1 (stereo partly shown)
Completion: 8.42

Prompt: Form field: reported pIC50 of CN1C(=O)N(c2cccc(C(F)(F)F)c2)C2=C(C(=O)CCC2)C1c1ccc(C#N)cc1C(N)=O (stereo not shown) [Example 6]
Completion: 8.80

Prompt: Form field: reported pIC50 of CN1C(=O)N(c2cccc(C(F)(F)F)c2)C2=C(C(=O)CC2)C1c1ccc(C#N)cc1C(=O)NCc1ccnn1C (stereo not shown)
Completion: 8.27
